study_target: CpsIadA (Colwellia psychrerythraea, UniProt Q484B6)
Construct: gene iadA; Ni-NTA and gel filtration; homo-octamer (314 kDa by AUC), two Zn ions per active site
Sequence (Q484B6 entry or part of it): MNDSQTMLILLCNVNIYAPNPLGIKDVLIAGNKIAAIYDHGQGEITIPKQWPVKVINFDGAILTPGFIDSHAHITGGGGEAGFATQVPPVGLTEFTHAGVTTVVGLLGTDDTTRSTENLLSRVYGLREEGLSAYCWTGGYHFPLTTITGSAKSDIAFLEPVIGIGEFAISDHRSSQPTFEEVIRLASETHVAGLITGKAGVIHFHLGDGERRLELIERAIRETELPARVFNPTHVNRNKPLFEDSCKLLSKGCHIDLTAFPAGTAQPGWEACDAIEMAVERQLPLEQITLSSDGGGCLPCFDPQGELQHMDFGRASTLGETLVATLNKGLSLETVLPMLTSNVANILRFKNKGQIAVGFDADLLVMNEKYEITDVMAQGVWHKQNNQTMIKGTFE
experiment: coupled spectrophotometric assay (aspartate aminotransferase/malate dehydrogenase, NADH at […] nm)
Assay type: biochemical
test_context: 100 mM HEPES pH 8.0, 100 mM KCl, 30°C
Where a SMILES comes first, the peptide text is derived from it.
test_readout: log10(Km) (log10 of the value in µM)

>  <molecule>
N[C@@H](CC(=O)NCC(=O)O)C(=O)O

>  <log10(Km)>
3.67

$$$$
>  <molecule>
NCCCC[C@H](NC(=O)C[C@H](N)C(=O)O)C(=O)O

>  <log10(Km)>
3.04

$$$$
>  <molecule>
N[C@@H](CC(=O)N[C@@H](Cc1c[nH]cn1)C(=O)O)C(=O)O

>  <log10(Km)>
3.72

$$$$
>  <molecule>
CC(C)C[C@H](NC(=O)[C@@H](N)CC(=O)O)C(=O)O [α-Asp-Leu] (H-Asp-Leu-OH)

>  <log10(Km)>
3.84

$$$$
>  <molecule>
C[C@H](NC(=O)C[C@H](N)C(=O)O)C(=O)O

>  <log10(Km)>
3.08

$$$$
>  <molecule>
N[C@@H](CC(=O)N[C@@H](Cc1ccccc1)C(=O)O)C(=O)O

>  <log10(Km)>
2.69

$$$$
>  <molecule>
CC(C)C[C@H](NC(=O)C[C@H](N)C(=O)O)C(=O)O

>  <log10(Km)>
2.85

$$$$
